System: NCI-H460 lung
experimental details: NCI-60 one-dose screen, 48 h (100 = growth as untreated, 0 = no growth, -100 = all killed)
particulars: 10 µM unless noted
The panel holds about 83,000 compounds, 20% with a hit somewhere; the sample as a whole holds those more often.
property name: growth (%)
Give your result in % as a bare value.

Inquiry: Which growth is reported for this compound? `Cn1c(=O)cc2c3c(c(NCCCO)ccc31)C(=O)c1ccccc1-2`
Reply text: 16.8

Inquiry: Which growth is reported for this compound? `NC(N)=NCCCCCNc1noc(Cc2c[nH]c3cc(Br)ccc23)n1`
Reply text: 68

Inquiry: Which growth is reported for this compound? `Cc1cc(N2CCN(CC(=O)Nc3ccc4c(ccn4C)c3)CC2)nc(N2CCCCCC2)n1`
Reply text: 101

Inquiry: Which growth is reported for this compound? `C=C(C)[C@@H]1CC[C@]2(C(=O)N3CCOCC3)CC[C@]3(C)[C@H](CC[C@@H]4[C@@]5(C)C/C(=C/c6ccncc6)C(=O)C(C)(C)[C@@H]5CC[C@]43C)[C@@H]12`
Reply text: 49.7

Inquiry: Which growth is reported for this compound? `COc1cc(OCc2cccc(Br)c2C)cc(OC)c1C=O`
Reply text: 75.8

Inquiry: Which growth is reported for this compound? `O=c1c2ccccc2n2cnc3ccc(Cl)c1c32`
Reply text: 58.5

Inquiry: Which growth is reported for this compound? `CCOC(=O)c1c2c(n3cccc(F)c13)C(=O)c1ncccc1C2=O`
Reply text: -22.1

Inquiry: Which growth is reported for this compound? `CSc1nc2ccccc2cc1/C=[N+](\[O-])c1ccccc1`
Reply text: 92.1

Inquiry: Which growth is reported for this compound? NC(Cc1ccc(O)c([N+](=O)[O-])c1)C(=O)O (stereo not given)
Reply text: 113

Inquiry: Which growth is reported for this compound? `Cn1ccnc1C(=O)/C=C/c1ccc(CC(=O)Nc2cc(C(F)(F)F)cc(C(F)(F)F)c2)cc1`
Reply text: 55.3

Inquiry: Which growth is reported for this compound? CCCCCCCCCCCCCCCCOCCCOP(=O)(O)C1CCCN(O)C1=O (stereo not given)
Reply text: -9.19

Inquiry: Which growth is reported for this compound? `COC(=O)c1nc(-c2ccc(C)cc2)oc1S(=O)(=O)c1cccc(OC)c1`
Reply text: 104

Inquiry: Which growth is reported for this compound? `CCn1c(SCC(=O)N/N=C(\C)c2ccc(Cl)cc2)nc2c1c(=O)n(C)c(=O)n2C`
Reply text: 101

Inquiry: Which growth is reported for this compound? `CCOC(=O)c1c(NC(=O)c2cccc(C(F)(F)F)c2)sc2c(CN(C)C)c(O)ccc12`
Reply text: 2.61

Inquiry: Which growth is reported for this compound? `C=C1C(=O)O[C@H]2[C@H]1CC/C(COC(=O)NCc1ccc(Cn3c(=O)sn(CCCCC)c3=O)cc1)=C\CC[C@@]1(C)O[C@@H]21`
Reply text: 92.6

Inquiry: Which growth is reported for this compound? `Cc1c2cnccc2c(C)c2c1c1cc(C#N)ccc1n2C`
Reply text: -19.7

Inquiry: Which growth is reported for this compound? `CN(C)c1ccc(C(=O)OCCCCCCl)cc1`
Reply text: 104

Inquiry: Which growth is reported for this compound? `O=C1/C(=C/c2cn(-c3ccccc3)nc2-c2ccccc2)SC(=S)N1C1CCCCC1`
Reply text: 103

Inquiry: Which growth is reported for this compound? `Cc1cc(N2CCCCC2)cc(C)c1-c1csc(NC(=O)c2ccncc2)n1`
Reply text: 66.9

Inquiry: Which growth is reported for this compound? CCOC(=O)C1=C(C)NC(=O)NC1c1c(Cl)n(CCCl)c2ccccc12 (stereo not given)
Reply text: 98.9

Hey, just so you know, these numbers are from PubChem BioAssay (NCI).
